Test system: Staphylococcus aureus ATCC 6538
Test: DGHM suspension test, microbicidal activity
Assay type: cell-based
Conditions: CU 100 mg/l; contact time 5 mins.
property: logarithmic reduction factor
// response body must contain only the number

# substance_smiles, logarithmic reduction factor
records = [
    ("CCCCCCCCCC(=O)OCC[N+](C)(CCO)CCOC(=O)CCCCCCCCC.COS(=O)(=O)[O-]", 4.58),
]

In the following, a different molecule is considered.
For the molecule CCCCCCCC(=O)OCC[N+](C)(CCOC(=O)CCCCCCC)CCOC(=O)CCCCCCC.COS(=O)(=O)[O-] , what logarithmic reduction factor is on record? 3.54
